# Test system: H4
# assayInfo: Luminescence Cell-Based Dose Response HTS to Identify Activators of 5'UTR Stem-Loop Driven Prion Protein mRNA Translation in H4 Neuroglioblastoma Cells. [Related pubchem assays: 1829 (Project Summary), 1814 (Primary HTS)]
# Assay type: functional
# conditionDescription: Homo sapiens
Active and inactive are the calls of the source.
attributeMeasured: EC50

| compound | attributeMeasured | result |
| --- | --- | --- |
| COc1ccc(Nc2ccc3c(c2)=NC2(CCCCC2)[N+]=3[O-])cc1 | EC50 | 79.5 µM (active) |
| CC1(C)Cc2c(c(N3CCOCC3)nc3snc(N)c23)CO1 | EC50 | > 120 µM (not active) |
| N#Cc1c(N2CCCC(O)C2)nc(N)c2c(N)nc3c(c12)CC(=O)N3C12CC3CC(CC(C3)C1)C2 (stereo unspecified) | EC50 | > 120 µM (not active) |
| CCCn1c(O)nnc1SCc1nc2ccccc2s1 | EC50 | 37.1 µM (active) |
| O=C(OCc1nc2ccccc2s1)C1CCN(C2=NS(=O)(=O)c3ccccc32)CC1 | EC50 | 21.9 µM (active) |
| CCOc1ccc(C(=O)c2cccs2)cc1 | EC50 | 11.4 µM (active) |

* * *

List of IC50 values.
# tgt: Bcl-2-like protein 10 (Homo sapiens, UniProt Q9HD36)
# Sequence (Q9HD36 whole entry): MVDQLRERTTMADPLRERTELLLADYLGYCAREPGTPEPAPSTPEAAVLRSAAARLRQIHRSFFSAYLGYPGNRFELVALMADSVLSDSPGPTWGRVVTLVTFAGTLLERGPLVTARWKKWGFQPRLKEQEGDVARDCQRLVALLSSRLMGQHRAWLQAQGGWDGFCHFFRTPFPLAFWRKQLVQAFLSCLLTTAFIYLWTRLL
# assayInfo: Bcl-B/TR3 peptide binding disruption – biochemical, fluorescence polarization, FITC-TR3 peptide, selectivity assay for Bfl-1 inhibitor project, primary screen (AID 748);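 also: fluorescence polarization from a fluorescein-labelled TR3 peptide binding purified Bcl-B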
Activity calls are given as the source filed them.

| compound | IC50 |
| --- | --- |
| Cc1cc(Cl)ccc1OCC(=O)OC(C)C(=O)N(C)C (centres undefined) | > 100 µM (inactive) |
| COc1ccc(NC(=O)c2cnn3c(C(F)(F)F)cc(-c4ccco4)nc23)cc1OC | 66.8 µM (inactive) |
| CCOc1ccc(C(=O)OCC(=O)NCc2ccco2)cc1OCC | > 100 µM (inactive) |
| COCCN1CCn2c(nc3cc(NC(=O)NC4CCCCC4)ccc32)C1 | > 12.5 µM (inactive) |

* * *

# assayInfo: viability loss in HeLa cells – cytotoxicity control for MgcRacGAP inhibitor project, dose response (AID 624300)
# Assay type: functional
Calls of active or inactive are those of the source.
List of CC50 values.
attributeMeasured: CC50

| molSmiles | attributeMeasured | result |
| --- | --- | --- |
| Oc1ccc(/C=N/Nc2nccnc2Cl)cc1 | CC50 | 46.1 µM (active) |
| CN(C)c1ccc(NC(=O)c2sc(SCC(=O)Nc3nccs3)nc2N)cc1 | CC50 | 100 µM (active) |
| COC(=O)c1cccc(-n2sc3ccccc3c2=O)c1 | CC50 | 100 µM (active) |
| COc1ccc(-n2sc3ccccc3c2=O)cc1 | CC50 | 79.7 µM (active) |
